procedure_summary: pKa of the lipid by TNS fluorescence
Assay type: physicochemical
measurement_parameters: pKa
metric_name: pKa

molecule="CCCCC/C=C\\C/C=C\\CCCCCCCCOCC(CN1CCC(C)CC1)OCCOCCO[C@H]1CC[C@@]2(C)C(=CC[C@H]3[C@@H]4CC[C@H]([C@H](C)CCCC(C)C)[C@@]4(C)CC[C@@H]32)C1 (stereo partly shown)" metric_name=pKa result=5.81
molecule="CCCCC/C=C\\C/C=C\\CCCCCCCCOCC(CN1CCCCC1)OCCOC(=O)CCC(=O)O[C@H]1CC[C@@]2(C)C(=CC[C@H]3[C@@H]4CC[C@H]([C@H](C)CCCC(C)C)[C@@]4(C)CC[C@@H]32)C1 (stereo partly shown)" metric_name=pKa result=6.1
molecule="CCCCC/C=C\\C/C=C\\CCCCCCCCOCC(CN1CCCCC1)OCCOCCOC(=O)O[C@H]1CC[C@@]2(C)C(C=CC3C2CC[C@@]2(C)C3CC[C@@H]2[C@H](C)CCCC(C)C)C1 (stereo partly shown)" metric_name=pKa result=6.33
molecule="CCCCCCCC/C=C\\CCCCCCCCOCC(CN1CCOCC1)OCCOCCO[C@H]1CC[C@@]2(C)C(=CC[C@H]3[C@@H]4CC[C@H]([C@H](C)CCCC(C)C)[C@@]4(C)CC[C@@H]32)C1 (stereo partly shown)" metric_name=pKa result=5.32
